System Tested: Neutrophil elastase (Homo sapiens) (UniProt P08246)
Sequence (P08246 whole entry): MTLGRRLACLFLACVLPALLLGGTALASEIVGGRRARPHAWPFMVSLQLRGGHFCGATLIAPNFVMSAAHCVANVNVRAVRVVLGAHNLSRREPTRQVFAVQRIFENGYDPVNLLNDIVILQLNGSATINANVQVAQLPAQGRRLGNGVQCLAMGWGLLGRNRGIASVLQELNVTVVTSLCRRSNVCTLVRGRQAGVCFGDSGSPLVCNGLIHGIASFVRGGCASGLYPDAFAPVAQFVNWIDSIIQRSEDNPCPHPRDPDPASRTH
Protocol Description: Inhibition of human leukocyte elastase at 25 uM assessed as Kinact/Ki ratio incubated for 15 mins by spectrofluorometry
Listed below: log10 of Ratio values for each entry.
Note the log scale: values are log10 of Ratio expressed in M⁻¹ s⁻¹.

Some compounds with known log10 of Ratio results, for comparison:
CSc1ccc(OP(=O)(Oc2ccc(SC)cc2)[C@H](NC(=O)[C@@H]2CCCN2C(=O)[C@@H](NC(=O)OC(C)(C)C)C(C)C)C(C)C)cc1 | 3.42
CC(C)C(NC(=O)[C@@H]1CCCN1C(=O)[C@@H](NC(=O)OC(C)(C)C)C(C)C)P(=O)(Oc1ccc(Cl)cc1)Oc1ccc(Cl)cc1 (mixture of isomers) | 4.96
COc1ccc(OP(=O)(Oc2ccc(OC)cc2)C(NC(=O)[C@@H]2CCCN2C(=O)[C@@H](NC(=O)OC(C)(C)C)C(C)C)C(C)C)cc1 (mixture of isomers) | 4.63
CSc1ccc(OP(=O)(Oc2ccc(SC)cc2)C(NC(=O)[C@@H]2CCCN2C(=O)[C@@H](NC(=O)OCc2ccccc2)C(C)C)C(C)C)cc1 (mixture of isomers) | 5.36
CSc1ccc(OP(=O)(Oc2ccc(SC)cc2)[C@@H](NC(=O)[C@@H]2CCCN2C(=O)[C@@H](NC(=O)COc2ccc(OCC(=O)O)cc2)C(C)C)C(C)C)cc1 | 6.37

Exam item: Form field: reported log10 of Ratio of CC(C)C(NC(=O)[C@@H]1CCCN1C(=O)[C@@H](NC(=O)OC(C)(C)C)C(C)C)P(=O)(Oc1ccccc1)Oc1ccccc1 (mixture of isomers)
Marked response: 4.66

Exam item: Quick check: log10 of Ratio of CCC(NC(=O)[C@@H]1CCCN1C(=O)[C@@H](NC(=O)OC(C)(C)C)C(C)C)P(=O)(Oc1ccccc1)Oc1ccccc1 (mixture of isomers) ?
Marked response: 3.85

Exam item: So what's the measured log10 of Ratio for this one? CC(C)C(NC(=O)[C@@H]1CCCN1C(=O)[C@@H](NC(=O)OC(C)(C)C)C(C)C)P(=O)(Oc1ccc(C(C)(C)C)cc1)Oc1ccc(C(C)(C)C)cc1 (mixture of isomers)
Marked response: 3.54
